Target: hNMB-receptor (Homo sapiens, UniProt P28336)
Sequence (P28336 whole entry): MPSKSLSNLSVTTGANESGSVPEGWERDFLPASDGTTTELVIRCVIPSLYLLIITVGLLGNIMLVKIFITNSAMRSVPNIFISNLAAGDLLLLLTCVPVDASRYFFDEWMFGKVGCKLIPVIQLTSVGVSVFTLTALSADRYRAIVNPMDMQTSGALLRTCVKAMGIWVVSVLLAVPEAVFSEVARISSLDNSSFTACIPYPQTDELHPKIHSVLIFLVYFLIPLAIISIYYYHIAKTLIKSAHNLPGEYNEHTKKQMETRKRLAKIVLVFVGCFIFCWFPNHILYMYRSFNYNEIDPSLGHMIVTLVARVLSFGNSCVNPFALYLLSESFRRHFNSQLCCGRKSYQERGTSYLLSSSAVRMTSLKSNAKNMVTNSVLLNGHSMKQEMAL
Assay: cell-based
pIC50: −log10 of the molar value. Square brackets hold non-standard residues; d marks the D form. Peptide text beside a SMILES is read from it.

| compound | comparison_symbol | pIC50 |
| --- | --- | --- |
| CC(Cc1c[nH]c2ccccc12)(NC(=O)Nc1ccc([N+](=O)[O-])cc1)C(=O)NCC1(c2ccccn2)CCCCC1 (centres unmarked) [Peptide 34, reference compound] | = | 7.61 |
| CC(C)C[C@H](NC(=O)[C@H](Cc1cnc[nH]1)NC(=O)CNC(=O)[C@@H](NC(=O)[C@H](C)NC(=O)[C@H](Cc1c[nH]c2ccccc12)NC(=O)[C@H](CCC(N)=O)NC(=O)[C@H](N)Cc1ccccc1)C(C)C)C(N)=O [Peptide 8, [D-Phe^6]Bn(6-13)NH2] | < | 5.00 |
| COC(=O)[C@H](CC(C)C)NC(=O)[C@H](Cc1c[nH]cn1)NC(=O)CNC(=O)[C@@H](NC(=O)[C@H](C)NC(=O)[C@H](Cc1c[nH]c2ccccc12)NC(=O)[C@H](CCC(N)=O)NC(=O)[C@H](N)Cc1ccccc1)C(C)C [Peptide 17, [D-Phe^6]Bn-(6-13)Methyl ester (ME)] | < | 5.00 |
| CSCC[C@H](NC(=O)[C@@H](Cc1c[nH]c2ccccc12)NC(=O)[C@@H](Cc1c[nH]c2ccccc12)NC(=O)[C@H](Cc1ccccc1)NC(=O)[C@@H](Cc1c[nH]c2ccccc12)NC(=O)[C@H](CCC(N)=O)NC(=O)[C@H](CCC(N)=O)NC(=O)[C@H]1CCCN1)C(N)=O [Peptide 4, [D-Pro^4, D-Trp^7,9,10]SP-(4-11)] (H-[dP]QQ[dW]F[dW][dW]M-NH2) | = | 5.15 |
| CC(C)C[C@H](NC(=O)[C@H](CC(C)C)NC(=O)[C@@H](Cc1c[nH]c2ccccc12)NC(=O)[C@H](Cc1ccccc1)NC(=O)[C@@H](Cc1c[nH]c2ccccc12)NC(=O)[C@H](CCC(N)=O)NC(=O)[C@H](CCC(N)=O)NC(=O)[C@@H]1CCCN1C(=O)[C@H](CCCCN)NC(=O)[C@@H]1CCCN1C(=O)[C@H](N)CCCN=C(N)N)C(N)=O [Peptide 3, [D-Arg^1, D-Trp^7,9, Leu^11]SP] (H-[dR]PKPQQ[dW]F[dW]LL-NH2) | = | 5.63 |
